Where these numbers come from: paper PMC8584173

Tested on: Bacillus subtilis H17 (rec+)
Assay: Bacillus subtilis rec-assay, H17
Type: cell-based
Conditions: B. subtilis H17; 256 µg per disc (NOQ 2 µg per disc)
measured_endpoint: inhibition zone diameter (mm)
One number for each entry, in mm.

# compound, units_label, inhibition zone diameter
rows = [
    ("O=[N+]([O-])c1cc([N+]2=C(Nc3ccc(Cl)c(Cl)c3)[S][Cu-2]23[S]C(Nc2ccc(Cl)c(Cl)c2)=[N+]3c2ccc(Cl)c([N+](=O)[O-])c2)ccc1Cl [Compound 5]", "mm", 17),
]

List the reported inhibition zone diameter of each compound below.
1. O=[N+]([O-])c1cc([N+]2=C(Nc3ccc(I)cc3)[S][Cu-2]23[S]C(Nc2ccc(I)cc2)=[N+]3c2ccc(Cl)c([N+](=O)[O-])c2)ccc1Cl [Compound 8]
2. O=[N+]([O-])c1cc([N+]2=C(Nc3ccccc3Br)[S][Cu-2]23[S]C(Nc2ccccc2Br)=[N+]3c2ccc(Cl)c([N+](=O)[O-])c2)ccc1Cl [Compound 1]
3. O=[N+]([O-])c1cc([N+]2=C(Nc3ccc(F)c(Cl)c3)[S][Cu-2]23[S]C(Nc2ccc(F)c(Cl)c2)=[N+]3c2ccc(Cl)c([N+](=O)[O-])c2)ccc1Cl [Compound 4]
4. O=[N+]([O-])c1cc(NC2=[N+](c3ccc(Cl)c([N+](=O)[O-])c3)[Cu-2]3([S]2)[S]C(Nc2ccc(Cl)c([N+](=O)[O-])c2)=[N+]3c2ccc(Cl)c([N+](=O)[O-])c2)ccc1Cl [Compound 6]

14
12
16
16
